Ref: ChEMBL document CHEMBL1201862

system: ACHN; assay: NCI tumour cell line growth inhibition, 48 h
Activity calls are given as the source filed them. No stated cut-off is given here; in the data, active = GI50 up to about 1.1 µM and inactive = higher.
Lab note: assign the record to one of active, inactive

Ask: For COC(=O)[C@@]12OC[C@]34C([C@@H](O)C1O)[C@@]1(C)CC(=O)C(O)=C(C)C1C[C@H]3OC(=O)[C@H](OC(=O)/C=C(/c1ccccc1)C(F)(F)F)[C@H]42 (stereo partly drawn) , which call appears in the assay record?
Result: inactive

Ask: For Cn1c(=O)c2c(nc(C[N+]3([O-])CCOCC3)n2C)n(C)c1=O , which call appears in the assay record?
Result: inactive

Ask: For C/C(=C\c1ccccc1)C(=O)c1c(C)cc(C)cc1C , which call appears in the assay record?
Result: inactive

Ask: For COC(=O)[C@H]1C[C@H]1NC(=O)C(CC(=O)OCc1ccccc1)NC(=O)OCc1ccccc1 (stereo partly drawn) , which call appears in the assay record?
Result: inactive

Ask: For COC(=O)[C@@H]1C[C@]2(Br)c3ccccc3N(S(=O)(=O)c3ccccc3)[C@@H]2N1C(=O)OC , which call appears in the assay record?
Result: inactive

Ask: For [N-]=[N+]=NC(c1ccccc1)(c1ccccc1)c1ccccc1 , which call appears in the assay record?
Result: inactive

Ask: For N#CC(C(=O)CCC(=O)Nc1cccc(C(F)(F)F)c1)c1ccc(Cl)cc1 (stereo not drawn) , which call appears in the assay record?
Result: inactive

Ask: For O=C1/C(=C/c2ccco2)NC(=S)N1CN1CCCCC1 , which call appears in the assay record?
Result: inactive

Ask: For COc1ccc2nc3n(c2c1)CCc1cc(OC)c(OC)cc1-3 , which call appears in the assay record?
Result: inactive

Ask: For CC(=O)O[C@H]1[C@@H](OC2CCCC2(c2ccccc2)c2ccccc2)O[N+]([O-])=C[C@@H]1c1ccccc1 (stereo partly drawn) , which call appears in the assay record?
Result: inactive

Ask: For C=C(CN(C)C)C(=O)c1ccccc1OC , which call appears in the assay record?
Result: inactive

Ask: For N#C/C(=C/c1ccc[nH]1)P(=O)(O)O , which call appears in the assay record?
Result: inactive

Ask: For O=C1Cc2ccccc2N1/N=C\c1ccc([N+](=O)[O-])cc1 , which call appears in the assay record?
Result: inactive

Ask: For Cc1ccc(CN2CCN(Cc3ccc(C)o3)C(C)C2)o1 (stereo not drawn) , which call appears in the assay record?
Result: inactive

Ask: For O=C1OC[C@@H]2Cc3c([nH]c4ccccc34)[C@@H](c3cc(O)c(O)c(O)c3)N12 , which call appears in the assay record?
Result: inactive

Ask: For Oc1cccc(C2SCc3nc4ccccc4n32)c1 (stereo not drawn) , which call appears in the assay record?
Result: inactive

Ask: For N#CC1=C(N)N2C(=O)/C(=C/c3ccccc3O)N=C2S1 , which call appears in the assay record?
Result: inactive

Ask: For C/C(=N\NC(=S)N(C)CCN(C)C(=S)N/N=C(\C)c1ccccn1)c1ccccn1 , which call appears in the assay record?
Result: active

Ask: For CCOC(=O)C1C(=O)CC(O)(c2ccccc2)C(C(=O)OCC)C1c1ccc(N(C)C)cc1 (stereo not drawn) , which call appears in the assay record?
Result: inactive

Ask: For CCSC1=N/C(=C/c2ccccc2O)C(=O)N1 , which call appears in the assay record?
Result: inactive

Ask: For Cc1cc2nc(C=C(C(F)(F)F)C(F)(F)F)sc2cc1C , which call appears in the assay record?
Result: inactive

Ask: For Cc1cc(N(CCC#N)CCC#N)ccc1C(/N=N/c1ccc(Cl)cc1)=N\NC(=O)c1ccccc1 , which call appears in the assay record?
Result: inactive

Ask: For OC1CCC[C@@H]1Sc1ccccc1 (stereo partly drawn) , which call appears in the assay record?
Result: inactive

Ask: For O=C(NCCCCNCCCNC(=O)C(F)(F)F)C(F)(F)F , which call appears in the assay record?
Result: inactive

Ask: For NC(=O)c1ccc[n+](C2=C([N-]S(=O)(=O)c3ccccc3)C(=O)c3ccccc3C2=O)c1 , which call appears in the assay record?
Result: inactive

Ask: For Cn1c2ccccc2n2c(=O)c3c(c(C#N)c12)CCCC3 , which call appears in the assay record?
Result: inactive

Ask: For NC(=O)c1ccc(N)nc1 [6-AMINONICOTINAMIDE] , which call appears in the assay record?
Result: inactive

Ask: For O=C(CC/C(CC(=O)c1ccc(Cl)cc1)=N\O)Nc1cccc(Cl)c1 , which call appears in the assay record?
Result: inactive

Ask: For O=C1Nc2ccccc2/C1=N/Nc1ccccc1Cl , which call appears in the assay record?
Result: inactive

Ask: For Cc1cc(Cl)ccc1NC1=NC(=O)C(CC(=O)Nc2ccc([N+](=O)[O-])cc2[N+](=O)[O-])S1 (stereo not drawn) , which call appears in the assay record?
Result: inactive

Ask: For CC(=O)/C=C/C1=C(C)CCCC1(C)CC(C)C (stereo not drawn) , which call appears in the assay record?
Result: inactive

Ask: For COc1cc(Nc2n[nH]c(NS(=O)(=O)c3cc(C)c(Cl)cc3S)n2)cc(OC)c1OC , which call appears in the assay record?
Result: inactive

Ask: For NNc1nnc(-c2ccccc2)nc1Cc1ccccc1 , which call appears in the assay record?
Result: inactive

Ask: For Nc1ccc(Nc2nc(F)nc(-c3c4ccccc4c4n3CCS4)n2)cc1 , which call appears in the assay record?
Result: inactive

Ask: For CCCCCCCCCCCCCCCCOCC(Cl)CP(=O)(O)OP(=O)(O)OCC1OC(n2cnc3c(N)ncnc32)C(O)C1O (stereo not drawn) , which call appears in the assay record?
Result: inactive

Ask: For COc1ccc(Nc2nc(N)c(C(=O)c3cccs3)s2)cc1 , which call appears in the assay record?
Result: inactive

Ask: For CCn1c(CCl)nc2c1C(=O)c1ccccc1C2=O , which call appears in the assay record?
Result: inactive

Ask: For CN(C)c1ccc(/C=C(/NC(=O)c2ccccc2)c2nc3cc(Cl)ccc3[nH]2)cc1 , which call appears in the assay record?
Result: inactive

Ask: For CCOC(=O)C(C(=O)OCC)P(=S)(S)c1ccccc1 (stereo not drawn) , which call appears in the assay record?
Result: inactive

Ask: For CC(=O)c1cccc(C)c1C(=O)O , which call appears in the assay record?
Result: inactive

Ask: For CN(C)CCNCCN , which call appears in the assay record?
Result: inactive

Ask: For CC12C(=O)N(CCN)C(=O)C1C1c3ccccc3C2c2ccccc21 (stereo not drawn) , which call appears in the assay record?
Result: inactive

Ask: For CSc1nc2c(c(=O)[nH]1)N=C(c1ccccc1)CC(c1ccccc1)N2 (stereo not drawn) , which call appears in the assay record?
Result: inactive
